Just for reference, paper PMC3430621 is where these values come from.

# test details: Pharmacokinetics in conscious freely moving rats after oral administration of BYHWT extract (HPLC-MS/MS of plasma)
# Format: in vivo, Sprague-Dawley rats
# conditions used: male, Sprague-Dawley, in vivo, po; rat plasma, BYHWT extract 10 g/kg p.o., n = 6; read-out: t1/2
measured quantity: half-life (h)
Dear colleague, please return just the value in h, with no unit written.

IN: # input molecule: CC(C)(O)[C@@H]1CC[C@](C)([C@H]2[C@@H](O)C[C@@]3(C)[C@@H]4C[C@H](O[C@@H]5O[C@H](CO)[C@@H](O)[C@H](O)[C@H]5O)[C@H]5C(C)(C)[C@@H](O[C@@H]6OC[C@@H](O)[C@H](O)[C@H]6O)CC[C@@]56C[C@@]46CC[C@]23C)O1 [Astragaloside IV, astragaloside IV] ; wanted: its half-life
OUT: 2.83
